# System: human Yes1 enzyme (Homo sapiens)
# Construct: made in house
# Assay Method Text: Yes1 enzyme inhibitory activity (time-resolved fluorometry, biotinylated peptide phosphorylation)
# Type: biochemical
# Applied Conditions: read-out: YES_IC50
Property Measured: pIC50
Answers are plain numbers, as −log10 of the molar value.

Take a look at these entries with their results.
[[record]]
smiles_repr = "Cc1cc(Oc2ccccc2F)ccc1-n1ncc(C(=O)c2cc3cc(OCC(F)F)c(N4C(=O)[C@@H]5C[C@H](NS(=O)(=O)c6ccc7ccccc7c6)CN5C4=O)cc3[nH]2)c1N"
numeric_result = 8.66

[[record]]
smiles_repr = "Cc1cc(-n2ncc(C(=O)c3cc4cc(OCC(F)F)c(N5CCC(N6CCOCC6)CC5)cc4[nH]3)c2N)ccc1Oc1ccccc1F"
numeric_result = 9.05


Below are some compounds; for each one, tell me its pIC50.
1. Cc1cc(Oc2ccccc2F)ccc1-n1ncc(C(=O)c2cc3cc(C(C)C)c(NS(=O)(=O)CCCF)cc3[nH]2)c1N
2. Cc1cc(Oc2c(F)cccc2F)ncc1-n1ncc(C(=O)c2cc3cc(F)c(N4C(=O)NC5(CCOCC5)C4=O)cc3[nH]2)c1N

8.74
8.42

Below are some compounds; for each one, tell me its pIC50.
1. Cc1cc(Oc2c(F)cccc2F)ncc1-n1ncc(C(=O)c2cc3cc(F)c(N(C(C)C)S(C)(=O)=O)cc3[nH]2)c1N
2. CS(=O)(=O)Nc1cc2[nH]c(C(=O)c3cnn(-c4c(Cl)cc(Oc5ccccc5F)cc4Cl)c3N)cc2cc1F

8.64
7.80

* * *

# System: human Yes1 enzyme (Homo sapiens, UniProt P07947)
# Construct: made in house
# Sequence (P07947 whole entry): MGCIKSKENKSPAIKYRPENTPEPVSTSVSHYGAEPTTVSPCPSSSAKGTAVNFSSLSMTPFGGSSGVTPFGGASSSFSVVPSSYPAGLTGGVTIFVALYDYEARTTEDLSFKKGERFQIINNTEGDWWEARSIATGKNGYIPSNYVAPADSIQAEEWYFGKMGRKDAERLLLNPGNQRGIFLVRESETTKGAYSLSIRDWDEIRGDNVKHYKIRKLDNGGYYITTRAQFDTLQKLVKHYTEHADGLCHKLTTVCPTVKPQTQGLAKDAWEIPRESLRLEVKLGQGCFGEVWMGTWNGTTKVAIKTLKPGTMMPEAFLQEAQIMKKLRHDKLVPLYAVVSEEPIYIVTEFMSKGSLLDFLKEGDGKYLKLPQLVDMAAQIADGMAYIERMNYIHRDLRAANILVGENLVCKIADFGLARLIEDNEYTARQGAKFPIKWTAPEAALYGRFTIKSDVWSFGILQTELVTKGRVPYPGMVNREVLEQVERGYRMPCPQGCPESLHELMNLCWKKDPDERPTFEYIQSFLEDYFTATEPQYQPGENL
# Assay Method Text: Yes1 enzyme inhibitory activity (time-resolved fluorometry, biotinylated peptide phosphorylation)
# Assay type: biochemical
# Applied Conditions: read-out: YES_IC50
Property Measured: IC50 (nM)
Answers are plain numbers, in nM.

Take a look at these entries with their results.
[[record]]
compound = "Cc1cc2cc(C(=O)c3cnn(-c4cnc(Oc5ccccc5F)cc4C)c3N)[nH]c2cc1C1CCN(S(C)(=O)=O)CC1"
numeric_result = 2.6

[[record]]
compound = "Cc1cc(Oc2c(F)cccc2F)ncc1-n1ncc(C(=O)c2cc3cc(OCC(F)F)c(N4C(=O)NC5(CCN(C6COC6)C5)C4=O)cc3[nH]2)c1N (stereo not drawn)"
numeric_result = 11


Would you kindly look at the next entry?
I have this compound here, Cc1cc(Oc2c(F)cccc2F)ncc1-n1ncc(C(=O)c2cc3cc(OC4CCN(C5CCCC5)CC4)c(-c4ccccc4F)cc3[nH]2)c1N , and I need its recorded IC50. 3.4

* * *

Answer each item with its documented pIC50.
# System: human Lck enzyme (Homo sapiens, UniProt P06239)
# Construct: purchased Carna Biosciences, Inc. 08-170
# Sequence (P06239 whole entry): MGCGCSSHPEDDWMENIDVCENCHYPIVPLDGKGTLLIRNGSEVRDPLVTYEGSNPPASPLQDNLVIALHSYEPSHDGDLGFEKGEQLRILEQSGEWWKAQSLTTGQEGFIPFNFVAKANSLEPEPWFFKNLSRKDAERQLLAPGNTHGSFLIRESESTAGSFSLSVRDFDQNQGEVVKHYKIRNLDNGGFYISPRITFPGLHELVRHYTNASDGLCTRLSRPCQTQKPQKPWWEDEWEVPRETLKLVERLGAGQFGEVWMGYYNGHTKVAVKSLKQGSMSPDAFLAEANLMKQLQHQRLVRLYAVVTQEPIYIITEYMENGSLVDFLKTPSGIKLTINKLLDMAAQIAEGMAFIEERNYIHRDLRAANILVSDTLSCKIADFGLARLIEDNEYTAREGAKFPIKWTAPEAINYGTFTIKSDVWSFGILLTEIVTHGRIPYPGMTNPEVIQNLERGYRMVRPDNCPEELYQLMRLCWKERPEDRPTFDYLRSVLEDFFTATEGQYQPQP
# Assay Method Text: Lck enzyme inhibitory activity (time-resolved fluorometry, biotinylated peptide phosphorylation)
# Type: biochemical
# Applied Conditions: read-out: LCK_IC50
Give bare numbers, as −log10 of the molar value.

Take a look at these entries with their results.
[[record]]
compound = "Cc1cc(Oc2c(F)cccc2F)ncc1-n1ncc(C(=O)c2cc3cc(OCC(F)F)c(N4C(=O)NC5(CCN(C6COC6)CC5)C4=O)cc3[nH]2)c1N [Example 5-1-350]"
system = "human Lck enzyme (Homo sapiens, UniProt P06239)"
property_measured = "pIC50"
numeric_result = 8.48

[[record]]
compound = "Cc1cc(Oc2ccccc2F)ccc1-n1ncc(C(=O)c2cc3cc(OCC(F)F)c(N4C(=O)[C@@H]5C[C@H](NS(=O)(=O)CCCF)CN5C4=O)cc3[nH]2)c1N [Example 5-1-255]"
system = "human Lck enzyme (Homo sapiens, UniProt P06239)"
property_measured = "pIC50"
numeric_result = 8.35

[[record]]
compound = "Cc1cc(Oc2c(F)cccc2F)ncc1-n1ncc(C(=O)c2cc3cc(F)c(N4CCOC4=O)cc3[nH]2)c1N [Example 5-1-097]"
system = "human Lck enzyme (Homo sapiens, UniProt P06239)"
property_measured = "pIC50"
numeric_result = 8.89


Below are some compounds; for each one, tell me its pIC50.
1. Cc1cc(Oc2ccccc2F)ccc1-n1ncc(C(=O)c2cc3cc(OC(F)F)c(Br)cc3[nH]2)c1N [Example 5-1-082]
2. Cc1cc(Oc2c(F)cccc2F)ncc1-n1ncc(C(=O)c2cc3cc(C(C)C)c(NS(=O)(=O)C4CCCC4)cc3[nH]2)c1N [Example 5-1-306]
3. Cc1cc(Oc2c(F)cccc2F)ncc1-n1ncc(C(=O)c2cc3cc(OC4CCN(C(C)C)CC4)c(-c4cnn(C)c4)cc3[nH]2)c1N [Example 5-1-249]
4. Cc1cc(Oc2ccccc2F)ccc1-n1ncc(C(=O)c2cc3cc(OC4CCN(C(C)C)CC4)c(Br)cc3[nH]2)c1N [Example 5-1-146]
5. Cc1cc(Oc2c(F)cccc2F)ncc1-n1ncc(C(=O)c2cc3cc(OC4CCN(C(C)C)CC4)c(N4CCC(O)CC4)cc3[nH]2)c1N [Example 5-1-202]
6. Cc1cc(Oc2c(F)cccc2F)ncc1-n1ncc(C(=O)c2cc3cc(OCC(F)F)c(N4C(=O)NC5(CCNCC5)C4=O)cc3[nH]2)c1N [Example 5-1-332]
7. CCOc1cc2cc(C(=O)c3cnn(-c4ccc(Oc5ccccc5F)cc4C)c3N)[nH]c2cc1C1CCN(S(=O)(=O)C2CC2)CC1 [Example 5-1-071]

7.96
6.82
8.43
8.28
8.55
8.60
7.21

Below are some compounds; for each one, tell me its pIC50.
1. CC(C)N1CCC(c2cc3cc(C(=O)c4cnn(-c5ccc(Oc6ccccc6F)cc5)c4N)[nH]c3cc2F)CC1 [Example 5-1-004]
2. Cc1cc(Oc2ccccc2F)ccc1-n1ncc(C(=O)c2cc3cc(OC4CCN(C(C)C)CC4)c(N4C(=O)NC(C)(C)C4=O)cc3[nH]2)c1N [Example 5-1-193]
3. Cc1cc(-n2ncc(C(=O)c3cc4cc(OC5CCN(C(C)C)CC5)c(-c5cnn(C)c5)cc4[nH]3)c2N)ccc1Oc1ccccc1F [Example 5-1-236]
4. Cc1cc(Oc2ccccc2F)ccc1-n1ncc(C(=O)c2cc3cc(OCC(F)F)c(N4C(=O)[C@@H]5C[C@H](NS(=O)(=O)Cc6ccccc6)CN5C4=O)cc3[nH]2)c1N [Example 5-1-275]
5. Cc1cc2cc(C(=O)c3cnn(-c4cnc(Oc5cc(F)ccc5F)cc4C)c3N)[nH]c2cc1NS(C)(=O)=O [Example 5-1-081]
6. Cc1cc(Oc2cc(F)cc(F)c2)nc(C)c1-n1ncc(C(=O)c2cc3cc(F)c(NS(C)(=O)=O)cc3[nH]2)c1N [Example 5-1-054]
7. Cc1cc(Oc2ccccc2F)ccc1-n1ncc(C(=O)c2cc3cc(C(C)C)c(N)cc3[nH]2)c1N [Example 5-1-266]
8. Cc1cc(Oc2c(F)cccc2F)ncc1-n1ncc(C(=O)c2cc3cc(OCC(F)F)c(NS(=O)(=O)c4cccc(Cl)c4)cc3[nH]2)c1N [Example 5-1-383]

[8.55, 8.89, 7.39, 8.15, 8.19, 6.46, 7.96, 6.57]
